Hey, just so you know, these numbers are from patent US20170267766A1.

# assay_system: monkey IGF-1R (on COS-7 cells) (African green monkey); also: test concentration or dose not given here
# measurement_notes: cell-based or functional assay

binder: m212A11 (antibody, V domains shown, murine mAb, hybridoma CNCM I-4773, group G2) VH: QVQLQQSGPELVKPGASVKMSCKASGYTFTSYYIHWVKQRPGQGLEWIGWIWPGDGSTKYNEKFKGKTTLTADKSSSTAYMFLSSLTSEDSAVYFCASPMITPNYAMDYWGQGASVTVSS VL: DIQMTQTTSSLSASLGDRVTISCRASQDINKYLNWYQQQPDGTVKLLIYYTSRLHSGVPSRFSGRGSGTDYSLTISNLEQEDIATYFCQQGSTLPYTFGGGTKLEIK
% internalisation: 73%
//
binder: m214F8 (antibody, V domains shown, murine mAb, hybridoma CNCM I-4775, group G2) VH: QVQLQQSGSELVKPGASVKLSCKASGYTFTSYYIHWVKQRPGQGLEWIGWIWPGDGSTKYNERFKGKTTLTADKSSSTAYMFLSSLTSEDSAVYFCASPMITPNYAMDYWGQGASVTVSS VL: DIQMTQTTSSLSASLGDRVTFSCRASQDISKYLNWYQQQPDGTIKLLIYYTSRLHSGVPSRFSGRGSGTDYSLTITNLEQEDIATYFCQQGSALPYTFGGGTKLEIK
% internalisation: 71%
//
binder: m208F2 (antibody, V domains shown, murine mAb, hybridoma CNCM I-4757, group G2; also called murine 208F2) VH: QVQLQQSGPELVKPGASVKMSCKASGYTFTSYYIYWVKQRPGQGLEWLGWIWPGDGSTKYNEKFKDKTTLTADKSSNTAYMFLSSLTSEDSAVYFCASPMITPNYAMDYWGQGASVTVSS VL: DIQMTQTTSSLSASLGDRVTISCRASQDISKYLNWYQQQPDGTIKLLIYYTSRLHSGVPSRFSGRGSGTDYSLTISNVEQEDIATYFCQQGSTLPYTFGGGTKLEIK
% internalisation: 74%
